Test system: HepG2
Experiment: cytotoxicity call (relative viability < 0.9)
Conditions: 10 µM
Out of some 39,000 compounds screened, about 3,300 (8.5%) were called active. For the sample, actives were picked, then their nearest neighbours and some compounds at random.
Hi! Could you answer with just one of these? active, inactive

C[C@H]1CN([C@@H](C)CO)C(=O)c2cc(Br)cnc2O[C@@H]1CN(C)C(=O)Nc1ccc(F)cc1
inactive
Cc1cc(C(=O)Nc2cccc3c2O[C@H](CN(C)S(=O)(=O)c2cccs2)[C@@H](C)CN([C@H](C)CO)C3=O)n(C)n1
inactive

[Q] Field: outcome | Entry: C[C@H](N)C(=O)N[C@@]1(C(=O)O)C[C@@H](Sc2nnc[nH]2)[C@H]2[C@H](C(=O)O)[C@H]21
[A] inactive

[Q] Field: outcome | Entry: Cc1noc(C)c1NC(=O)N(C)C[C@@H]1OCCCC[C@@H](C)Oc2ccc(NC(=O)NC3CCCCC3)cc2C(=O)N([C@H](C)CO)C[C@H]1C
[A] inactive

[Q] Field: outcome | Entry: C[C@@H]1CN([C@H](C)CO)C(=O)Cc2cc(NS(=O)(=O)c3cccs3)ccc2O[C@H]1CN(C)C(=O)Nc1cccc2ccccc12
[A] inactive

[Q] Field: outcome | Entry: CN(C)Cc1cn(CC[C@@H]2CC[C@@H](NC(=O)Cc3cccnc3)[C@@H](CO)O2)nn1
[A] inactive

[Q] Field: outcome | Entry: C[C@@H]1CN([C@H](C)CO)C(=O)c2cccc(NC(=O)Nc3ccc(C(F)(F)F)cc3)c2O[C@H]1CN(C)Cc1ccc(Cl)c(Cl)c1
[A] inactive
